Examples of compounds with documented Plant response rating, Surinam grass follow.
tested on: Surinam grass (Brachiaria decumbens); test: Test C preemergence; format: in vivo; details: preemergence; Rate 125 g/ha; scale 0 to 100, 0 no effect, 100 complete control
readout: Plant response rating, Surinam grass

>>> df
                                   compound  recorded_result
0  O=C1C(n2ccc(C3CCCCC3)n2)OCN1c1cccc(C(F)(F)F)c1 (centres unmarked)               30
1  O=C1C(n2ccc(C3CCC3)n2)SCN1c1cccc(C(F)(F)F)c1 (centres unmarked)                0
2  COc1cc(N2CCC(n3ccc(C(C)(C)C)n3)C2=O)ccc1C (centres unmarked)               90
3  O=C1C(n2ccc(C3CCC3)n2)SCN1c1cccc(OC(F)F)c1 (centres unmarked)                0
4  CC(C)Oc1cccc(N2CCC(n3ccc(C(C)(C)C)n3)C2=O)c1 (centres unmarked)               70
